- experiment-description: Size (diameter) and PDI of lipid nanoparticles by Dynamic Light Scattering
- Assay type: physicochemical
- study-conditions: lipid nanoparticles of the ionizable lipid; diluted with PBS to mRNA 1 μg/mL; DLS
Label 1 when Particle size is strictly below 100 nm; at or above that, label -1.

| molecule | cat |
| --- | --- |
| CCCCCCCCC(CCCCCC)C(=O)OCCCCCCN(CCCCCCOC(=O)C(CCCCCC)CCCCCCCC)CCCn1ccnc1C (centres unmarked) | -1 |
| CCCCCCCCC(CCCCCC)C(=O)OCCCCCCN(CCCCCCOC(=O)C(CCCCCC)CCCCCCCC)Cc1ccc(N)cc1 (centres unmarked) | 1 |
| CCCCCCCCC(CCCCCC)C(=O)OCCCCCCN(CCCCCCOC(=O)C(CCCCCC)CCCCCCCC)CCc1ccc(N)nc1 (centres unmarked) | 1 |
| CCCCCCCCC(CCCCCC)C(=O)OCCCCCCN(CCCCCCOC(=O)C(CCCCCC)CCCCCCCC)CCC1CCNCC1 (centres unmarked) | -1 |
| CCCCCCCCC(CCCCCC)C(=O)OCCCCCCN(CCCCCCOC(=O)C(CCCCCC)CCCCCCCC)CCN1CCNCC1 (centres unmarked) | -1 |
